# Tested on: zebrafish hearing thresholds
# method summary: Auditory evoked potential (AEP) testing in zebrafish inner ear model
# Type: in vivo, Danio rerio
# test settings: 400 Hz, 25 mg/kg i.p., 48 h
test readout: AEP hearing threshold, significance of pairwise comparison against vehicle

* [Cl][Pt-2]12[NH2+]CC[NH+]1CC[NH2+]2 (stereo not shown) [[Pt(dien)Cl]^+, Pt(diethylenetriamine)Cl] | **** (**** p ≤ 0.0001)
* CC[N+]1(CC)CC[NH+]2CC[NH2+][Pt-2]21[Cl] (stereo not shown) [[Pt(Et2dien)Cl]^+, Pt(N,N-diethyldiethylenetriamine)Cl] | **** (**** p ≤ 0.0001)
* N.N.[Cl][Pt][Cl] [Cisplatin, cisplatin] | **** (**** p ≤ 0.0001)
